# reported pIC50; entries follow
target: human PD-L1 / Human PD-1 (Homo sapiens (Human), UniProt Q9NZQ7); test: Enzyme-Linked Immunosorbent Assay (ELISA), PD-1/PD-L1 binding; conditions: plate-coated human PD-L1, biotinylated human PD-1
Sequence (Q9NZQ7 19-239): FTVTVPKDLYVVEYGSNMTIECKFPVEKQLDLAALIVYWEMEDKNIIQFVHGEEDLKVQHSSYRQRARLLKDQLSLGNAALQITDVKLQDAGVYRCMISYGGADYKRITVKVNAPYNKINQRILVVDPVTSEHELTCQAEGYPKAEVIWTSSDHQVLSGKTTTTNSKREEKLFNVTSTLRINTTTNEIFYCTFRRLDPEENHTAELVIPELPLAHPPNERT
pIC50: −log10 of the molar value.

Here are 2 compounds together with their reported answers.
• CCOc1cc(O[C@H]2CCc3c(-c4cccc(OCCCN5CC[C@@H](O)C5)c4C)cccc32)c(Cl)cc1CN[C@H](C(=O)O)[C@@H](C)O = > 8.30
• Cc1c(OCCCN2CCC(O)CC2)cccc1-c1cccc2c1CC[C@@H]2Oc1cc(OCc2cncc(C#N)c2)c(CN[C@H](C(=O)OC(C)(C)C)[C@@H](C)O)cc1Cl = 6.30 to 8.30

Requested field: pIC50. Item: Cc1c(OCCCN2CCC(F)CC2)cccc1-c1cccc2c1CC[C@@H]2Oc1cc(OCc2cc(C#N)cc(C#N)c2)c(CN[C@@H]2CCC[C@H]2O)cc1Cl
> 8.30

Requested field: pIC50. Item: Cc1c(OCCCN2CCC(F)(C#N)CC2)cccc1-c1cccc2c1CC[C@@H]2Oc1cc(OCc2cc(C#N)cc(C#N)c2)c(CN[C@H]2CCC(=O)NC2)cc1Cl
6.30 to 8.30

Requested field: pIC50. Item: Cc1c(OCCCN2CCC(F)CC2)cccc1-c1cccc2c1CC[C@@H]2Oc1cc(OCc2cc(C#N)cc(C#N)c2)c(CNC2CCNC(=O)C2)cc1Cl (stereo partly drawn)
> 8.30

Requested field: pIC50. Item: CC(C)N1CCC(COc2cccc(-c3cccc4c3CC[C@@H]4Oc3cc(OCc4cncc(C#N)c4)c(CNC[C@@H]4CCC(=O)N4)cc3Cl)c2Cl)C1 (stereo partly drawn)
> 8.30
